Provenance of the data: PubChem BioAssay

# target.system: Torsin-1A (Homo sapiens) (UniProt O14656)
# Sequence (O14656 whole entry, looked up): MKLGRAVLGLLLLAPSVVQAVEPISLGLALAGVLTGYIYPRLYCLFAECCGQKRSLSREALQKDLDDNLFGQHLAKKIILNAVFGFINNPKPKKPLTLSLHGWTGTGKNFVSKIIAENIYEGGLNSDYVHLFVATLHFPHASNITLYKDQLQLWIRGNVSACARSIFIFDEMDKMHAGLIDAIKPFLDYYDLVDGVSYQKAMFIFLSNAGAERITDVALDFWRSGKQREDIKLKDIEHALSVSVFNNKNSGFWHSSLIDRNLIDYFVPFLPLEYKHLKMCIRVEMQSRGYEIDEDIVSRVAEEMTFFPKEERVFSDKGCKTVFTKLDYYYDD
# measurement.description: torsin A mutant lysate binding on microarrays – cell lysate, small-molecule microarray, COS7 lysate, 635/667 nm fluorescence, primary screen (AID 1150);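 also: score pools 667 nm emission and signal to noise measuring lysate protein binding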
# measurement.setup: COS7 hTOR1A mutant lysate, 635 nm fluorescence, higher = more signal
Entries and their measured composite z-score follow.
Form rule: numeric answer, no unit written next to it.

Solved cases (3 shown):
molecule | target.system | composite z-score
C[N+](C)(C)CCCCCCNC(=O)[C@@H]1C[C@@H]2C(=O)NCC(=O)N2[C@@H]1c1cccc(OCCO)c1 | Torsin-1A (Homo sapiens) (UniProt O14656) | -0.371
C=CCN1C(=O)[C@@]2(O[C@@H](CCO)[C@H]([Si](C)(C)c3ccc(OC)cc3)[C@H]2C)c2cc(NC(=O)[C@H](C)O)ccc21 | Torsin-1A (Homo sapiens) (UniProt O14656) | 1.01
CCOC(=O)C1=CC[C@@H](c2cccc(Br)c2)N(S(=O)(=O)c2ccc(C)cc2)[C@H]1c1ccc([N+](=O)[O-])cc1 | Torsin-1A (Homo sapiens) (UniProt O14656) | 0.469

Pending molecule:
Request the reported composite z-score associated with O=C1NC(=O)C2C1C=CC(C(O)c1ccc3c(c1)OCO3)N2Nc1ccc(Cl)cc1Cl (stereo not drawn) -0.446

====

# measurement.description: compound effects on lung adenocarcinoma cell viability – A549, calcein-AM fluorescence, 48 h, basal, profiling panel (AID 1162); also: test concentration not given here
# measurement.setup: higher = more signal
# binarize z-score: threshold -0.4 inclusive, high side 1, low side 0

compound | classification
C[C@H]1NC(=O)C([C@@H](C)OCc2ccccc2)NC(=O)[C@@]23C(=O)N[C@@H](Cc4ccccc4)C2[C@H](C)[C@@]2(C)O[C@H]2C3/C=C/CC/C=C/CNC1=O (stereo partly specified) | 1
COc1ccc([Si](C)(C)[C@@H]2[C@@H](CCO)O[C@]3(C(=O)N(Cc4ccc(N5C(=O)c6ccccc6Oc6ccccc65)cc4)c4ccccc43)[C@H]2C)cc1 | 0
CC(C)(C)OC(=O)CC[C@]1(C(=O)O)COC(c2ccc(OCCCO)cc2)=N1 | 1
[N-]=[N+]=NCc1ccccc1C[C@]1(C(=O)NCCN2CCOCC2)N=C(c2ccc(OCCCO)cc2)O[C@H]1c1ccccc1 | 1

Here is the next item to consider.
Quick check: does COC(=O)[C@@]1(Cc2ccccc2)[C@H]2c3cc(C(=O)N4CCCC4)n(Cc4ccccc4)c3C[C@H]2CN1C(=O)c1ccccc1 have z-score greater than or equal to -0.4? 0

====

# target.system: Homeobox protein Hox-A13 (Mus musculus)
# measurement.description: disruptors of Hoxa13 oligonucleotide interaction – biochemical, fluorescence polarization, labeled oligonucleotide, primary screen (AID 1185)
# measurement.setup: Hoxa13:DNA binding, 15 min, higher = more signal, called active from +8 up or from −8 down
Entries and their measured z-score follow.
Form rule: numeric answer, no unit written next to it.

Solved cases (2 shown):
smiles.input | target.system | observed
COCC1=C([C@H](O)CCc2ccccc2)[C@H](CO)[C@@H]2C(=O)N(C)C(=O)[C@@H]2C1 | Homeobox protein Hox-A13 (Mus musculus) | -6.06
COCCOC(=O)N1C(=O)[C@@]2(c3cc(C#CCC(C(=O)OC)C(=O)OC)ccc31)[C@H](c1ccc(OCCO)cc1)N1[C@H](c3ccccc3)[C@H](c3ccccc3)OC(=O)[C@H]1[C@@H]2C(N)=O | Homeobox protein Hox-A13 (Mus musculus) | -1.07

Pending molecule:
Request the reported z-score associated with COC(=O)[C@@]1(Cc2ccc(OC)cc2)[C@H]2c3cc(C(=O)N(C)C)n(Cc4cc(F)c(F)c(F)c4)c3C[C@H]2CN1C(=O)c1ccccc1 -1.93
